Data provenance is ChEMBL document CHEMBL4665675.

As shown below, each of these molecules has a reported IC50 value.
System: KB
RUN_DESCRIPTION: Antiproliferative activity against human KB cells incubated for 36 hrs
Assay type: functional, cell-based
I only need the number, in nM, no unit after it.

Completed entries (count: 2):
record_smiles=CCOC(=O)OC[C@H]1Cc2cc(OC)c(OC)c(OC)c2-c2ccc(SC)c(=O)cc21 reported_value=11
record_smiles=COc1cc2c(c(OC)c1OC)-c1ccc(SC)c(=O)cc1[C@@H](CO)C2 reported_value=144

Next up:
stdin: What IC50 value was documented for this molecule, C=C1Cc2cc(OC)c(OC)c(OC)c2-c2ccc(SC)c(=O)cc21 ?
stdout: 140

---

Measured IC50 by item
RUN_DESCRIPTION: Antiproliferative activity against human KB-8511 cells incubated for 96 hrs by spectrophotometric method
Type: functional, cell-based
CONDITIONS_USED: KB-ChR-8-5-11, 96 h

compound=COc1c(CO)c2c(c(OC)c1OC)-c1ccc(OC)c(=O)cc1[C@@H](NC(C)=O)CC2 reported_value="> 1000 nM"

stdin: Report IC50 for COc1c(CNC(=O)c2ccccc2)c2c(c(OC)c1OC)-c1ccc(OC)c(=O)cc1[C@@H](NC(C)=O)CC2 please.
stdout: > 1000 nM

stdin: Recorded IC50 for COc1cc2c(c(OC)c1OC)-c1ccc(OC)c(=O)cc1[C@@H](NC(C)=O)CC2 [COLCHICINE] , please?
stdout: 540 nM

stdin: Please report the recorded IC50 for CCOC(=O)NCc1c2c(c(OC)c(OC)c1OC)-c1ccc(OC)c(=O)cc1[C@@H](NC(C)=O)CC2 .
stdout: > 1000 nM

---

Test system: MCF7
RUN_DESCRIPTION: Antiproliferative activity against human MCF7 cells incubated for 72 hrs by sulforhodamine B assay
Format: functional, cell-based
CONDITIONS_USED: MCF7, 72 h
pIC50: −log10 of the molar value.
Output Condition met for pIC50 not less than 8; output Condition not met otherwise.

As a guide, the following entries are already answered.
record_smiles=CCCCCCCCCC(=O)N[C@H]1CCc2c(Cl)c(OC)c(OC)c(OC)c2-c2ccc(SC)c(=O)cc21 test_system=MCF7 label="Condition not met"
record_smiles=CCC(=O)N[C@H]1CCc2c(Cl)c(OC)c(OC)c(OC)c2-c2ccc(SC)c(=O)cc21 test_system=MCF7 label="Condition met"
record_smiles=CCN(CC)C(=O)N[C@H]1CCc2c(Cl)c(OC)c(OC)c(OC)c2-c2ccc(SC)c(=O)cc21 test_system=MCF7 label="Condition not met"

Kindly consider the entry below.
stdin: Hi team, for COc1c(Cl)c2c(c(OC)c1OC)-c1ccc(SC)c(=O)cc1[C@@H](NC(=O)OCCOCCO)CC2 , is the recorded pIC50 at or above 8?
stdout: Condition not met

---

Quick reference: pIC50 of the listed items.
Test system: MIA PaCa-2
RUN_DESCRIPTION: Cytotoxicity against human Mia PaCa-2 cells incubated for 48 hrs by MTT assay
Assay type: functional, cell-based
CONDITIONS_USED: MIA PaCa-2, 48 h
On this scale, pIC50 is minus log10 of a concentration expressed in M (mol/L).

compound="COc1cc2c(c(OC)c1OC)-c1ccc(OC)c(=O)cc1[C@@H](NC(C)=O)CC2 [COLCHICINE]" observed_property=pIC50 reported_value=7.38

Attention now turns to another entry.
stdin: # input compound: COc1cc2c(c(OC)c1OC)-c1ccc(Nc3ccc(Cl)c(C(F)(F)F)c3)c(=O)cc1[C@@H](NC(C)=O)CC2 ; wanted: its pIC50
stdout: 7.46
